System: LXRb homodimer (NR concentration 270 nM)
Assay: PBM binding z-score (relative to random genomic background probes); higher = stronger binding; sequences stand for … in GC…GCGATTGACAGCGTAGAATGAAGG
Measured property: PBM binding z-score
One number for each entry.

Consider the following illustrative entries.
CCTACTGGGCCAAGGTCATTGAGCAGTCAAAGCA : -0.573
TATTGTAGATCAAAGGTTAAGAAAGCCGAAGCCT : 0.724
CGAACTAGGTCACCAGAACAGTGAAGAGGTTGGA : -0.116
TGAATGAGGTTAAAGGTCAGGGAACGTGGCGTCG : 1.05
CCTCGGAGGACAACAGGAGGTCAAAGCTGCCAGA : 0.0871

// each sequence listed below needs its PBM binding z-score
1. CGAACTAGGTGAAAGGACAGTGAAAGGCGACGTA
2. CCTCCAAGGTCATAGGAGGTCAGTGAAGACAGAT
3. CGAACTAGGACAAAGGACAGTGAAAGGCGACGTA
4. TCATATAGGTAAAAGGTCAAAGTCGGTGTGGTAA
5. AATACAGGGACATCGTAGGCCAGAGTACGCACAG
6. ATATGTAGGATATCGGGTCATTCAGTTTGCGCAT
7. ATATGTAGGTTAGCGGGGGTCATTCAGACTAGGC

-0.863
0.899
-0.967
2.43
0.118
0.577
8.88

---

Tested on: PPARg:RXRa 90nM:30nM, anti-RXR (NR concentration 90 nM, RXRa partner concentration 30 nM)
Test: PBM binding z-score (relative to random genomic background probes); higher = stronger binding; sequences stand for … in GC…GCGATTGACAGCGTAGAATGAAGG
Mark TRUE for reported PBM binding z-score of 1 or greater; mark FALSE for anything smaller.

Before answering, review these 5 worked examples.
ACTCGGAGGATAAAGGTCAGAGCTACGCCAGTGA : TRUE
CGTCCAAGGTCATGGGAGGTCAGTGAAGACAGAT : TRUE
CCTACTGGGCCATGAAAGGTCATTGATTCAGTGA : TRUE
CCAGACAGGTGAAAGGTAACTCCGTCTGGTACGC : TRUE
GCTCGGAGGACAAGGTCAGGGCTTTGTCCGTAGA : FALSE

We next turn to a different sequence, shown below.
Please tell me: is the sequence `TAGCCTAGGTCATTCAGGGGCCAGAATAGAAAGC` at or over 1 in terms of PBM binding z-score? TRUE

---

Tested on: RARb homodimer (NR concentration 270 nM)
Experiment: PBM binding z-score (relative to random genomic background probes); higher = stronger binding; sequences stand for … in GC…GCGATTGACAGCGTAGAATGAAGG
Reported PBM binding z-score maps to class as: lo (below 2), mid (2 to below 3), hi (3 or more)

Before answering, review these 2 worked examples.
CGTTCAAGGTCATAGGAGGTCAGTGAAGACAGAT : hi
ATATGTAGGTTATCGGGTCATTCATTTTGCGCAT : hi

Entry `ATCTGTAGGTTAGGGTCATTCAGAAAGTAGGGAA` belongs to which category? hi

Entry `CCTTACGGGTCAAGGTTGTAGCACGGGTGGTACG` belongs to which category? hi

Entry `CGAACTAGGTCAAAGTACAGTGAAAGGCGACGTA` belongs to which category? mid

Entry `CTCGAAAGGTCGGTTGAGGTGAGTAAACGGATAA` belongs to which category? mid

Entry `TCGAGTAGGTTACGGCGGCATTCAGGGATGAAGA` belongs to which category? lo

Entry `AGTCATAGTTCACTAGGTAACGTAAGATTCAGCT` belongs to which category? mid

Entry `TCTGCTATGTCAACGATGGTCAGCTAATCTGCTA` belongs to which category? lo

Entry `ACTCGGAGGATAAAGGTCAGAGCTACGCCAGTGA` belongs to which category? hi
